# System: HFF
# assay remarks: Cytotoxicity in human foreskin fibroblast (HFF) stationary by MTT assay
# Type: functional, cell-based
# condition info: Homo sapiens, HFF
experimental endpoint: pIC50
Expect pIC50 as a plain number equal to -log10 of the molar concentration.

[Q] Lookup: pIC50 / HFF / NC(=O)c1cn([C@@H]2O[C@H](CO)[C@@H](O)[C@@H]2F)c2ncnc(N)c12
[A] 6.89

----------
Task for the reader: assign each of the following compounds its reported Growth rate.
# System: L1210
# assay remarks: Antiproliferative activity in L1210 Murine Leukemia in vitro expressed as Growth rate in the presence of compound
# Assay type: functional, Mus musculus
# Set-up: concentration or dose not given beside the values
State the answer as a number, implicitly in %.

[Q] Request the reported Growth rate associated with N#Cc1c(Br)n([C@H]2O[C@H](CO)[C@@H](O)[C@@H]2F)c2ncnc(N)c12
[A] 45

[Q] Request the reported Growth rate associated with N#Cc1c(Br)n([C@@H]2O[C@H](CO)[C@@H](O)[C@@H]2F)c2ncnc(N)c12
[A] 21

[Q] Request the reported Growth rate associated with N#Cc1cn([C@@H]2O[C@H](CO)[C@@H](O)[C@@H]2F)c2ncnc(N)c12
[A] 11

[Q] Request the reported Growth rate associated with NC(=O)c1cn([C@@H]2O[C@H](CO)[C@@H](O)[C@@H]2F)c2ncnc(N)c12
[A] 9

[Q] Request the reported Growth rate associated with N#Cc1cn([C@H]2O[C@H](CO)[C@@H](O)[C@@H]2F)c2ncnc(N)c12
[A] 98

[Q] Request the reported Growth rate associated with NC(=S)c1cn([C@@H]2O[C@H](CO)[C@@H](O)[C@@H]2F)c2ncnc(N)c12
[A] 5
